tested on: HMEC; experiment: Cytotoxicity against HMEC after 72 hrs by trypan blue exclusion assay; type: ADME, cell-based; conditions: Homo sapiens
pEC50: −log10 of the molar value.
Below is a list of entries, each paired with its recorded pEC50 value.

[[record]]
smi = "CC[C@H]1OC(=O)[C@H](C)[C@@H](O)[C@H](C)[C@@H](O[C@@H]2O[C@H](C)C[C@H](N(C)Cc3ccc(-c4cn(CCCCCCC(=O)NO)nn4)cc3)[C@H]2O)[C@](C)(OC)C[C@@H](C)C(=O)[C@H](C)[C@@H](O)[C@]1(C)O"
endpoint_result = "< 5.00"

[[record]]
smi = "CC[C@H]1OC(=O)[C@H](C)[C@@H](O[C@H]2C[C@@](C)(OC)[C@@H](O)[C@H](C)O2)[C@H](C)[C@@H](O[C@@H]2O[C@H](C)C[C@H](N(C)Cc3ccc(-c4cn(CCCCCCCCC(=O)NO)nn4)cc3)[C@H]2O)[C@](C)(O)C[C@@H](C)CN(C)[C@H](C)[C@@H](O)[C@]1(C)O"
endpoint_result = "< 5.00"


Field: next molecule
Given the entry CC[C@H]1OC(=O)[C@H](C)[C@@H](O[C@H]2C[C@@](C)(OC)[C@@H](O)[C@H](C)O2)[C@H](C)[C@@H](O[C@@H]2O[C@H](C)C[C@H](N(C)Cc3ccc(-c4cn(CCCCCC(=O)NO)nn4)cc3)[C@H]2O)[C@](C)(O)C[C@@H](C)CN(C)[C@H](C)[C@@H](O)[C@]1(C)O , report its measured pEC50.
< 5.00

These data points were gathered from ChEMBL document CHEMBL1139366.
